Every entry's value here was drawn from PubChem BioAssay AID248.

Test system: L1210 leukemia ip in BDF1 mice, survival T/C
method: NCI In Vivo Anticancer Drug Screen. Data for tumor model L1210 Leukemia (intraperitoneal) in B6D2F1 (BDF1) mice
reported.conditions: endpoint: mean survival time; dose: 25.0 mg/kg/injection; schedule: Q01DX009 (ip); vehicle: saline with Tween-80; higher = longer survival
Toxic doses and inconclusive results are not listed.
Consider the following compounds and their measured T/C readings.

| smiles.text | T/C |
| --- | --- |
| CN1CCN(C(=O)Nc2cccc(F)c2)CC1 | 97 % of control |
| O=C(Nc1ccc2c(c1)OCO2)O/N=C\c1cccnc1 | 105 % of control |
| C=C(Br)CSC#N | 102 % of control |
| CCOC(=O)c1c(NC(=O)C(F)(F)F)[nH]c(SSc2[nH]c(NC(=O)C(F)(F)F)c(C(=O)OCC)c2C(=O)OCC)c1C(=O)OCC | 97 % of control |
| Cc1ccc2cccc([N+](=O)[O-])c2n1 | 93 % of control |
| OCCC1(CCO)CCCCC1 | 99 % of control |

---

Tested on: L1210 leukemia ip in BDF1 mice, survival T/C
method: NCI In Vivo Anticancer Drug Screen. Data for tumor model L1210 Leukemia (intraperitoneal) in B6D2F1 (BDF1) mice
reported.conditions: endpoint: mean survival time; dose: 10.0 mg/kg/injection; schedule: Q01DX001 (ip); vehicle: saline; higher = longer survival
Inconclusive results and toxic doses are left out.
value.kind: T/C

| compound | measured.value |
| --- | --- |
| N#CSCCOCCSC#N | 96 % of control |
| CC1OC(OC2C(O)CC(OC3C(O)CC(OC4CCC5(C)C(CCC6C5CCC5(C)C(C7=CC(=O)OC7)CCC65O)C4)OC3C)OC2C)CC(O)C1O (stereo not drawn) | 106 % of control |
| O=[N+]([O-])c1ccc(C2=CSC3=NCCN23)cc1 | 95 % of control |

---

Test system: L1210 leukemia ip in BDF1 mice, survival T/C
method: NCI In Vivo Anticancer Drug Screen. Data for tumor model L1210 Leukemia (intraperitoneal) in B6D2F1 (BDF1) mice
reported.conditions: endpoint: mean survival time; dose: 12.5 mg/kg/injection; schedule: Q01DX009 (ip); vehicle: Klucel (hydroxypropylcellulose) (HPC); higher = longer survival
Description: The antitumor activity of compounds was measured in mice bearing transplantable tumors. Survival or tumor size were measured and the results are expressed as the measurement made in the treated group (T) divided by the measurement made in the vehicle treated control group (C). The tumor model used in this assay is L1210 Leukemia (intraperitoneal) in B6D2F1 (BDF1) mice
Toxic doses and inconclusive results are not listed.
value.kind: T/C

| compound | value.kind | measured.value |
| --- | --- | --- |
| CC(C)CCCC(C)C1CCC2C3CCC4CC(=O)CCC4(C)C3CCC12C (stereo not drawn) | T/C | 104 % of control |
| NNc1nc2ccccc2s1 | T/C | 100 % of control |
| CC(C)c1ccccc1NC1=NCCO1 | T/C | 86 % of control |
| COc1nc(N)c(C#N)cc1C#N | T/C | 96 % of control |
| NC1CCC(CC2CCCCCC2)CC1 (stereo not drawn) | T/C | 100 % of control |
| C=CCNC(=S)Nc1cccc(Cl)c1C | T/C | 87 % of control |
| CSc1nnc([N+](=O)[O-])s1 | T/C | 90 % of control |
| CNCc1ccccc1C(O)c1ccc(Cl)cc1 (stereo not drawn) | T/C | 96 % of control |
